- Test system: MOLT-4 leukemia
- testName: NCI tumour cell line growth inhibition, 48 h
The following molecules are shown together with reported GI50 values.

molecule	GI50
CC(C)(C)OC(=O)N(CCCN(CCn1c2c(c3ccccc3c1=O)C(=O)c1ccccc1-2)C(=O)OC(C)(C)C)CCn1c2c(c3ccccc3c1=O)C(=O)c1ccccc1-2	6.46 µM
N#C/C(C(=S)Nc1ccccc1)=C1/NN=C2c3ccccc3C(=O)NN21	32.1 µM
C[C@]12CC[C@@H]3c4ccc(O)cc4C[C@@H](CCCCCCCCCS(=O)CCCC(F)(F)C(F)(F)F)[C@H]3[C@@H]1CC[C@@H]2O (stereo partly drawn)	> 100 µM

====

- Tested on: SF-268 CNS
- testName: NCI tumour cell line growth inhibition, 48 h

molecule	targetOrTestSystem	TGI
Cc1cc(=O)[nH]c(NNC(C#N)c2ccc(O)cc2)n1 (configuration not stated)	SF-268 CNS	> 100 µM
O=C(c1ccc(Cl)cc1Cl)N(C(=O)N1CCCCC1)c1ccccc1	SF-268 CNS	> 100 µM
COc1cc(C(=O)O[C@H](C(N)=O)[C@]2(C)CO2)c2ccccc2c1	SF-268 CNS	36.7 µM
CN(C)C(=S)SN(C)C(=O)Nc1ccccc1	SF-268 CNS	99.9 µM
O=C(NC1CCCCCC1)C1C(=O)N(C2CCCCCC2)C(=O)/C1=N\O (configuration not stated)	SF-268 CNS	> 100 µM
C[C@]12CC[C@@H]3c4ccc(O)cc4CC[C@H]3[C@@H]1CC[C@@H]2NS(=O)(=O)c1ccc(C(F)(F)F)cc1	SF-268 CNS	11.8 µM
CC(C(=O)N1c2ccccc2Sc2ccccc21)N1c2ccccc2Sc2ccccc21 (configuration not stated)	SF-268 CNS	> 100 µM
COc1cc(C2c3cc4c(cc3[C@@H](Nc3ccccc3)C3CO[C@@H](OC)[C@H]23)OCO4)cc(OC)c1O (some centres not stated)	SF-268 CNS	> 25 µM
NC(N)=NC(N)=Nc1cc2ccccc2c2ccccc12	SF-268 CNS	24.1 µM
Cn1cc(C2=C(c3cn(CCCN=C(N)N)c4ccccc34)C(=O)NC2=O)c2ccccc21	SF-268 CNS	> 25 µM
O=[N+]([O-])c1ccccc1N=Nc1c(O)sc2ccccc12	SF-268 CNS	> 100 µM
COc1ccc(C(=O)/C=C/c2cccnc2Nc2cc(OC)c(OC)c(OC)c2)cc1	SF-268 CNS	14.8 µM
CCCCCCCCCCCCCCCCCc1cccc(OCOCCOC)c1CO	SF-268 CNS	> 100 µM
CC1=CC(=O)NP(=O)(Oc2ccc(C)cc2)N1 (configuration not stated)	SF-268 CNS	> 100 µM
COc1cc(-c2c(C#N)c(N)n3c(nc4ccccc43)c2C#N)cc(Br)c1OC	SF-268 CNS	> 100 µM
COc1ccc(OC)c2c1C(=O)C(Cl)=C(N1CCN(CCOCCO)CC1)C2=O	SF-268 CNS	29.5 µM
O=C(CC(=O)N(C(=O)c1ccccc1)c1ccc(Cl)cc1)N/N=C\c1cc(N=Nc2ccccc2Cl)ccc1O	SF-268 CNS	> 100 µM
CC(=O)c1cccc2c1CC1(C2)Cc2ccc3c(c2C1=O)CCC3 (configuration not stated)	SF-268 CNS	> 100 µM
O=C(O)C(Sc1ccc(Cl)cc1)Sc1ccc(Cl)cc1	SF-268 CNS	> 100 µM
c1ccc2c(c1)nc1n2CNCC1	SF-268 CNS	> 100 µM
CNC1C(=O)C(C)C(O)(C(CC(C)C(O)/C=C/C=C/CNC(=O)C(C)(C)C(O)\C(C)=C/C=C\C=C\Cc2cnc(C)o2)OC)C12C(=O)OC2COC (configuration not stated) (tested in a mixture with another compound)	SF-268 CNS	42.9 µM
NS(=O)(=O)c1nnc(NC(=O)c2ccccc2)s1	SF-268 CNS	> 100 µM
O=C1c2ccccc2S[C@@H](O)[C@@H]2CCCN12	SF-268 CNS	> 100 µM
Nc1nc(Cl)cc(NCC2(CO)CC(OCc3ccccc3)C2)n1 (configuration not stated)	SF-268 CNS	74.8 µM
COc1cc2c3c(n(CCCBr)c(=O)c2cc1OC)-c1ccc(NC(C)=O)cc1C3=O	SF-268 CNS	> 100 µM
CCN(CC)Cc1cc(Nc2ccnc3ccc4c(nnn4C)c23)ccc1O	SF-268 CNS	29.9 µM
COc1ccc(C(=O)O)c(Cc2cccc3ccccc23)c1	SF-268 CNS	> 100 µM
COc1ccc2cc(C(=O)/C=C/c3cccc(OC)c3OC)ccc2c1	SF-268 CNS	50.8 µM
COc1ccc(C2CC(=O)c3c(O)c(OC)c(OC)c(OC)c3O2)c(O)c1 (configuration not stated)	SF-268 CNS	38.3 µM
Cc1cc(C2CCCCC2)n(O)c(=O)c1	SF-268 CNS	> 100 µM
COc1ccc(C2CC(=O)c3c(OC)cc(OC)cc3O2)cc1 (configuration not stated)	SF-268 CNS	> 100 µM
Cc1[nH]c(N=Nc2ccccc2)nc1N=Nc1ccccc1	SF-268 CNS	11.5 µM

====

- Test system: NCI-H226 lung
- testName: NCI tumour cell line growth inhibition, 48 h

molecule	targetOrTestSystem	TGI
COc1ccc(/C(=N/Nc2ccc([N+](=O)[O-])cc2)Sc2cc(Cl)c(C)cc2S(N)(=O)=O)cc1	NCI-H226 lung	9.63 µM
CC(C(=O)N1c2ccccc2Sc2ccccc21)N1c2ccccc2Sc2ccccc21 (configuration not stated)	NCI-H226 lung	> 100 µM
CC1=CC(=O)NP(=O)(Oc2ccc(C)cc2)N1 (configuration not stated)	NCI-H226 lung	> 100 µM
Cc1ccc(S(=O)(=O)OC2C3OC(C)(C)OC3OC2C(c2cc(O)c3c(c2O)C(=O)c2ccccc2C3=O)c2cc(O)c3c(c2O)C(=O)c2ccccc2C3=O)cc1 (configuration not stated)	NCI-H226 lung	> 10 µM
N#C/C(C(=S)Nc1ccccc1)=C1/NN=C2c3ccccc3C(=O)NN21	NCI-H226 lung	> 100 µM
COc1ccc(OC)c2c1C(=O)C(Cl)=C(N1CCN(CCOCCO)CC1)C2=O	NCI-H226 lung	39.5 µM
CC(=O)NC(CCCN)C(=O)NCc1ccccc1 (configuration not stated)	NCI-H226 lung	> 100 µM

====

- System: U251 CNS
- testName: NCI tumour cell line growth inhibition, 48 h
Reported TGI values are given for each entry in this list.

molecule	TGI
NC(N)=NC(N)=Nc1cc2ccccc2c2ccccc12	18.1 µM
COc1cc([C@@H]2c3cc4c(cc3C(O[C@@H]3O[C@@H]5CO[C@@H](c6cccs6)OC5[C@H](O)[C@H]3O)C3COC(=O)[C@@H]32)OCO4)cc(OC)c1O (stereo partly drawn)	1.37 µM
Cc1ccccc1Nc1cn(COCc2ccccc2)c(=O)[nH]c1=O	> 100 µM
COC(=O)[C@]12CCC(C)(C)C[C@H]1C1=CC[C@@H]3[C@@]4(C)C/C(=C/c5cccnc5)C(=O)C(C)(C)[C@@H]4CC[C@@]3(C)[C@]1(C)CC2	46.9 µM
N#Cc1nc(COCCOCc2ccccc2)oc1N	> 100 µM
CC12CCCC(CC(=O)c3[nH]c4ccccc4c31)C2 (stereo not drawn)	34.7 µM
O=C(CCCSc1nc(-c2ccc(Cl)cc2)cc(-c2ccc(Cl)cc2)n1)NO	13 µM
S=C(/N=c1/sc(Nc2ccccc2)nc2sc3c(c12)CCCC3)Nc1ccccc1	> 62.5 µM
NCCc1nc(-c2nc(C(=O)O)cs2)cs1	> 100 µM
O=C(O)c1cc(N=Nc2ccc([As](=O)(O)O)cc2)ccc1O	> 100 µM
CC(=O)NC(CCCN)C(=O)NCc1ccccc1 (stereo not drawn)	> 100 µM
COc1cccc(N=Cc2c3ccccc3c(=O)n3c2oc2ccccc23)c1	> 100 µM
O=C(C[C@@H](C(=O)NCc1cccc(C(F)(F)F)c1)N1C(=O)[C@@H](N2C(=O)OC[C@@H]2c2ccccc2)[C@H]1/C=C/c1ccccc1)NC1CCN(Cc2ccccc2)CC1	17.2 µM
CCSc1nc(N2CCOCC2)c2cn[nH]c2n1	> 100 µM
NC1C2(CCCCCC2)NC(=O)C12CCCCCC2 (stereo not drawn)	> 100 µM
O=P(O)(O)CN1CCN(CP(=O)(O)O)CCN(CP(=O)(O)O)CCN(CP(=O)(O)O)CC1	> 100 µM
O=C(/C=C/c1ccccc1Cl)c1ccccc1Cl	30.8 µM
O=c1[nH]c(=O)n(C2CC(O)C(CS)O2)cc1F (stereo not drawn)	> 100 µM
COc1ccc(C2CC(=O)c3c(OC)cc(OC)cc3O2)cc1 (stereo not drawn)	> 100 µM
Cc1cc(=O)[nH]c(NNC(C#N)c2ccc(O)cc2)n1 (stereo not drawn)	> 100 µM
COc1ccc(C(=O)/C=C/c2cccnc2Nc2cc(OC)c(OC)c(OC)c2)cc1	7 µM
O=S(O)CCCCSSCCCCSSCCCCS(=O)O	> 100 µM
N#Cc1cnsc1	> 100 µM
O=C1C(Br)=CC2(C=C1Br)CCN=c1c(O)c3c(c(O)c12)=NC=N3	28.4 µM
CN(C)CC(CN(C)C)c1ccccn1	> 100 µM
C[C@]12CC[C@@H]3c4ccc(O)cc4C[C@@H](CCCCCCCCCS(=O)CCCC(F)(F)C(F)(F)F)[C@H]3[C@@H]1CC[C@@H]2O (stereo partly drawn)	> 100 µM
CCCCNC(=O)NS(=O)(=O)c1ccc(N2N=C(c3ccc(C)cc3C)CC2c2ccc(N(C)C)cc2)cc1 (stereo not drawn)	27.6 µM
CCC1c2[nH]c3ccccc3c2C[C@H]2C(=O)NC(CCC(=O)OC(C)(C)C)C(=O)N12 (stereo partly drawn)	> 100 µM
